biological target: T1, recombinant human IL-13 (human, UniProt P35225 35-146); experiment: SPR
T1 construct: also called rh-IL-13; hIL-13
T1 sequence (P35225 35-146 limits assumed): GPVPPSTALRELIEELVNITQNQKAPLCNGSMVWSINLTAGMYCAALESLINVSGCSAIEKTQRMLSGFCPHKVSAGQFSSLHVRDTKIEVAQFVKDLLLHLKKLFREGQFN
The entries below come with measured kon values attached.
# output: bare number, implied unit M⁻¹ s⁻¹

What the record says about BDG38.125 (antibody, V domains shown, IgG1) VH: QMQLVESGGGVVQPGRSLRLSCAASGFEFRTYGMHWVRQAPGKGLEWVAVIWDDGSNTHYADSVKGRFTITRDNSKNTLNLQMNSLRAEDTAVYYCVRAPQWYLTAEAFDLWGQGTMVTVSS VL: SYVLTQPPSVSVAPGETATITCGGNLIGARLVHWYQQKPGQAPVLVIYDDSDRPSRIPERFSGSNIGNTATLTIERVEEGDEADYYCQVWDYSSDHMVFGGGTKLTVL : kon is 6.12e+06

What the record says about BDG38.126 (antibody, V domains shown, IgG1) VH: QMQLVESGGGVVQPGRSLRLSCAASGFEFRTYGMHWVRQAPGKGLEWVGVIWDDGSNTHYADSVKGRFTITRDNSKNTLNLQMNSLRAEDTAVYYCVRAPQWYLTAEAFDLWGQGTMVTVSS VL: SYILTQPPSVSVAPGQTARITCGGNLIGAKLVHWYQQKPGQAPVLVIYDDSDRPSRIPERFSGSNIGNTATLTIERVEEGDEADYYCQVWDYSSDHMVFGGGTKLTVL : kon is 4.92e+06

What the record says about BDG38.140 (antibody, V domains shown, IgG1) VH: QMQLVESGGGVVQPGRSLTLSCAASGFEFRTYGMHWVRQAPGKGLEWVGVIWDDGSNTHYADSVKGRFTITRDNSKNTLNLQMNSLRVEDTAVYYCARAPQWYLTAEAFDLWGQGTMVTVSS VL: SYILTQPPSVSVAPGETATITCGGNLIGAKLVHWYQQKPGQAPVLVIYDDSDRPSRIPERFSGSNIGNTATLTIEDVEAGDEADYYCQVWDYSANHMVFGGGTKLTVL : kon is 4.88e+06

Data provenance: patent US20240059769A1
